This collection of values is drawn from paper PMC13334477.

Could you please report measured pKd for the items listed next?
molecular target: DK66 DNA duplex; test: Native ESI-MS, DK66; type: binding; conditions: 10 μM DNA, 20 μM ligand, 100 mM ammonium acetate; read-out: Kd1 DK66
Give bare numbers, as −log10 of the molar value.

Reference set, count: 4
{"smiles input": "COc1ccc(-[n+]2c3ccc4cc(OC)ccc4c3cc3c4ccc(OC)cc4ccc32)cc1", "pKd": 2.97}
{"smiles input": "COc1ccc2c(ccc3c2cc2c4ccc(OC)cc4ccc2[n+]3-c2ccc([N+](=O)[O-])cc2)c1", "pKd": 3.78}
{"smiles input": "COc1ccc2c(ccc3c2cc2c4ccc(OC)cc4ccc2[n+]3-c2ccccc2)c1", "pKd": 2.32}
{"smiles input": "COC(=O)c1ccc(-[n+]2c3ccc4cc(OC)ccc4c3cc3c4ccc(OC)cc4ccc32)cc1", "pKd": 3.15}

Then there is this molecule:
Note to self: pKd recorded for c1ccc(-[n+]2c3ccc4ccccc4c3cc3c4ccccc4ccc32)cc1 was 4.12

---

Could you please report measured pKd for the items listed next?
target: rLTR4-5′Cy5 (parallel RNA G4); test: Ligand-induced fluorescence quenching assay (FQA), rLTR4-5′Cy5; type: binding, HIV-1; conditions: +10µM ds26
One number for each entry, as −log10 of the molar value.

# map each compound to its pKd
1. COc1ccc2c(ccc3c2cc2c4ccc(OC)cc4ccc2[n+]3-c2ccc([N+](=O)[O-])cc2)c1
2. c1ccc(-[n+]2c3ccc4ccccc4c3cc3c4ccccc4ccc32)cc1
3. COC(=O)c1ccc(-[n+]2c3ccc4cc(OC)ccc4c3cc3c4ccc(OC)cc4ccc32)cc1
4. COc1ccc(-[n+]2c3ccc4cc(OC)ccc4c3cc3c4ccc(OC)cc4ccc32)cc1
5. COc1ccc2c(ccc3c2cc2c4ccc(OC)cc4ccc2[n+]3-c2ccccc2)c1

**Result**
[5.08, 5.02, 4.94, 4.95, 5.05]

---

target: rLTR4-5′Cy5 (parallel RNA G4); test: Ligand-induced fluorescence quenching assay (FQA), rLTR4-5′Cy5; assay type: binding, HIV-1; conditions: No ds26
parameter: Kd (µM)
Give bare numbers, in µM.

Reference set, count: 4
{"smiles input": "c1ccc(-[n+]2c3ccc4ccccc4c3cc3c4ccccc4ccc32)cc1", "test system": "rLTR4-5′Cy5 (parallel RNA G4)", "Kd, µM": 6.2}
{"smiles input": "COc1ccc2c(ccc3c2cc2c4ccc(OC)cc4ccc2[n+]3-c2ccc([N+](=O)[O-])cc2)c1", "test system": "rLTR4-5′Cy5 (parallel RNA G4)", "Kd, µM": 4.4}
{"smiles input": "COc1ccc(-[n+]2c3ccc4cc(OC)ccc4c3cc3c4ccc(OC)cc4ccc32)cc1", "test system": "rLTR4-5′Cy5 (parallel RNA G4)", "Kd, µM": 8.7}
{"smiles input": "COc1ccc2c(ccc3c2cc2c4ccc(OC)cc4ccc2[n+]3-c2ccccc2)c1", "test system": "rLTR4-5′Cy5 (parallel RNA G4)", "Kd, µM": 5.5}

Reported rLTR4-5′Cy5 (parallel RNA G4) Kd for item COC(=O)c1ccc(-[n+]2c3ccc4cc(OC)ccc4c3cc3c4ccc(OC)cc4ccc32)cc1 was 9.3

---

test system: HIVpro2-FT (hybrid DNA G4); assay: FRET melting assay, HIVpro2-FT; assay type: binding, HIV-1; details: +10µM ds26; ligand 1 μM, DNA 0.2 μM
Param threshold (2 °C) applies to ΔT1/2 HIVpro2; output fulfilled when value >= threshold, not fulfilled when value < threshold.

Answered examples (3):
{"smiles input": "COc1ccc2c(ccc3c2cc2c4ccc(OC)cc4ccc2[n+]3-c2ccc([N+](=O)[O-])cc2)c1", "test system": "HIVpro2-FT (hybrid DNA G4)", "assigned category": "fulfilled"}
{"smiles input": "COc1ccc2c(ccc3c2cc2c4ccc(OC)cc4ccc2[n+]3-c2ccccc2)c1", "test system": "HIVpro2-FT (hybrid DNA G4)", "assigned category": "fulfilled"}
{"smiles input": "c1ccc(-[n+]2c3ccc4ccccc4c3cc3c4ccccc4ccc32)cc1", "test system": "HIVpro2-FT (hybrid DNA G4)", "assigned category": "not fulfilled"}

**Query** hey, is ΔT1/2 HIVpro2 for this one >= 2 °C? COc1ccc(-[n+]2c3ccc4cc(OC)ccc4c3cc3c4ccc(OC)cc4ccc32)cc1
**Result** fulfilled

---

system: Htel-FT (human telomeric DNA G4); assay: FRET melting assay, Htel-FT; type: binding; conditions: +10µM ds26; ligand 1 μM, DNA 0.2 μM
parameter: ΔT1/2 Htel (°C)
Give bare numbers, in °C.

Reference set, count: 4
{"smiles input": "c1ccc(-[n+]2c3ccc4ccccc4c3cc3c4ccccc4ccc32)cc1", "ΔT1/2 Htel (°C)": 9.0}
{"smiles input": "COc1ccc2c(ccc3c2cc2c4ccc(OC)cc4ccc2[n+]3-c2ccc([N+](=O)[O-])cc2)c1", "ΔT1/2 Htel (°C)": 14}
{"smiles input": "COc1ccc(-[n+]2c3ccc4cc(OC)ccc4c3cc3c4ccc(OC)cc4ccc32)cc1", "ΔT1/2 Htel (°C)": 14}
{"smiles input": "COC(=O)c1ccc(-[n+]2c3ccc4cc(OC)ccc4c3cc3c4ccc(OC)cc4ccc32)cc1", "ΔT1/2 Htel (°C)": 12}

Then there is this molecule:
Note to self: ΔT1/2 Htel recorded for COc1ccc2c(ccc3c2cc2c4ccc(OC)cc4ccc2[n+]3-c2ccccc2)c1 was 13

---

Could you please report measured Kd for the items listed next?
biological target: DK100 DNA duplex; test: Native ESI-MS, DK100; type: binding; conditions: 10 μM DNA, 20 μM ligand, 100 mM ammonium acetate; read-out: Kd2 DK100
Dear colleague, please send the value followed by its unit.

{"compound": "c1ccc(-[n+]2c3ccc4ccccc4c3cc3c4ccccc4ccc32)cc1 [DBA5]", "Kd": "67.7 µM"}

# map each compound to its Kd
1. COc1ccc(-[n+]2c3ccc4cc(OC)ccc4c3cc3c4ccc(OC)cc4ccc32)cc1 [DBA3]
2. COc1ccc2c(ccc3c2cc2c4ccc(OC)cc4ccc2[n+]3-c2ccc([N+](=O)[O-])cc2)c1 [DBA4]

**Result**
618 µM
142 µM

---

Could you please report measured IC50 for the items listed next?
test system: HIV-1; assay: microbe, parasite or virus in culture; details: Human immunodeficiency virus 1, HeLaP4, read-out: IC50 (infectivity inhibition), native HIV-1, MOI 1, compound added 30 min before infection, 24 h, β-gal reporter
Numbers only, in nM.

Reference set, count: 2
{"smiles input": "COc1ccc2c(ccc3c2cc2c4ccc(OC)cc4ccc2[n+]3-c2ccc([N+](=O)[O-])cc2)c1", "display unit": "nM", "IC50": 1000}
{"smiles input": "COc1ccc2c(ccc3c2cc2c4ccc(OC)cc4ccc2[n+]3-c2ccccc2)c1", "display unit": "nM", "IC50": 900}

# map each compound to its IC50
1. COc1ccc(-[n+]2c3ccc4cc(OC)ccc4c3cc3c4ccc(OC)cc4ccc32)cc1
2. COC(=O)c1ccc(-[n+]2c3ccc4cc(OC)ccc4c3cc3c4ccc(OC)cc4ccc32)cc1

**Result**
1. 4300
2. 3100
